Items are presented alongside their recorded GI50.
- System: SK-MEL-5 melanoma
- experimentSummary: NCI tumour cell line growth inhibition, 48 h

molecule: CCn1nc(-c2ccc(C(=O)OC)cc2)nc2c(=O)n(C)c(=O)nc1-2
measuredMetric: GI50
result: 128 nM

molecule: Cc1ccc(C2C3Cc4ccccc4C3=NN2c2ccc(S(=O)(=O)NC(=O)NC3CCCCC3)cc2)cc1 (stereo not given)
measuredMetric: GI50
result: 14500 nM

molecule: NC(=O)c1c(Br)n(C2OC(CO)C(O)C2O)c2ncnc(N)c12 (stereo not given)
measuredMetric: GI50
result: 2650 nM

molecule: CC(C)OP(=O)(OC(C)C)c1ncc(-c2ccc(C(F)(F)F)cc2)c(NC2CCCCCC2)n1
measuredMetric: GI50
result: > 10000 nM

molecule: COc1cccc(/C=C2\COc3ccc(O)c(O)c3C2=O)c1
measuredMetric: GI50
result: 1440 nM

Moving on to the next molecule.
Just so you know, measured GI50 for COc1ccc(C(=O)c2cc(OC)c(OC)c(OC)c2)cc1OC(=O)C(Cl)(Cl)Cl came out at 32.5 nM
